target: PDK1 (Homo sapiens (Human)); experiment: PDK1 kinase assay (coupled PDK1/AKT/FAM-crosstide assay, IMAP fluorescence polarization); assay type: biochemical; details: inhibition of PDK1 in vitro
Sequence (O15530 51-359): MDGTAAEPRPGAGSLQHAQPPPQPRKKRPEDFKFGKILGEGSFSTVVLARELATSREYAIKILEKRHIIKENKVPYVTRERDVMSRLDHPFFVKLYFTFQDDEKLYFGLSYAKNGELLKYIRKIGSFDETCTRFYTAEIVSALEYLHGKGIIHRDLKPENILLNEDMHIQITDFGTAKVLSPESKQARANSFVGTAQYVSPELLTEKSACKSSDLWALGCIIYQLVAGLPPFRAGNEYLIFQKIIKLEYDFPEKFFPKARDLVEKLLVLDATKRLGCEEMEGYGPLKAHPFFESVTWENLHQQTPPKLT
IC50 values, listed per item

The following compounds have reported results that may help.
COMPOUND	RESULT
CNC(=O)c1nc(-c2ccc(CNc3ncc(C#N)cc3C(=O)N[C@@H](C)c3ccc(F)cc3)cc2)cnc1N	< 100 nM
Cc1cc(F)ccc1NC(=O)c1cc(C(F)(F)F)cnc1NCc1ccc(-c2cnc3[nH]nc(N)c3c2)cc1	< 100 nM
N#Cc1cnc(NCc2ccc(-c3cnc(N)cn3)cc2)c(C(=O)NCc2ccc(F)cc2)c1	< 100 nM
C[C@H](NC(=O)c1cc(C#N)cnc1NCc1ccc(-c2cnc(N)c(C(=O)NCCN3CCOCC3)c2)cc1)c1ccc(F)cc1	< 100 nM

Test item C[C@H](NC(=O)c1cc(C#N)cnc1N[C@H](CC(N)=O)c1ccc(-c2c[nH]c3ncnc(N)c23)cc1)c1ccc(F)cc1 ; PDK1 (Homo sapiens (Human)); reported IC50 was < 100 nM

Test item CC(N)CCc1nc(-c2ccc(CNc3ncc(C#N)cc3C(=O)N[C@@H](C)c3ccc(F)cc3)cc2)cnc1N (some centres unmarked) ; PDK1 (Homo sapiens (Human)); reported IC50 was < 100 nM

Test item C[C@H](NC(=O)c1cc(C#N)cnc1NCc1ccc(-c2cnc3[nH]c(=O)[nH]c3c2)cc1)c1ccc(F)c(F)c1 ; PDK1 (Homo sapiens (Human)); reported IC50 was < 100 nM

Test item C[C@H](NC(=O)c1cc(C#N)cnc1NCc1ccc(-c2cnc(N)c(N3CCNCC3)n2)cc1)c1ccc(F)cc1 ; PDK1 (Homo sapiens (Human)); reported IC50 was < 100 nM

###

molecular target: PDK1 (Homo sapiens (Human)); assay: PDK1 kinase assay (coupled PDK1/AKT/FAM-crosstide assay, IMAP fluorescence polarization); assay type: biochemical; settings: inhibition of phospo-PDK1 in vitro
pIC50: −log10 of the molar value. Where a name gives a salt, the structure may show the parent alone.
pIC50 values, listed per item

// C[C@H](NC(=O)c1cccnc1NCc1ccc(-c2ccc3ncc(-n4ccnc4N)nc3c2)s1)c1ccc(F)c(F)c1 : pIC50 value = 6.00 to 7.00

// Nc1ncnc2ccc(-c3ccc(CNc4ncccc4C(=O)Nc4cc(F)c(F)c(F)c4)s3)cc12 [Example 3.40, (TFA salt)] : pIC50 value = 6.00 to 7.00

// Nc1ncnc2ccc(-c3ccc(CNc4ncccc4C(=O)NCc4ccccc4)s3)cc12 [Example 3.56, (TFA salt)] : pIC50 value = 6.00 to 7.00

// O=C1Nc2cc(/C=C/CNc3ncccc3C(=O)NCc3ccc(F)c(F)c3)ccc2/C1=C/c1cnc[nH]1 : pIC50 value = > 7.00

// Nc1ncnc2ccc(-c3ccc(CNc4ncccc4C(=O)Nc4ccc(F)c(F)c4)s3)cc12 [Example 3.24, (TFA salt)] : pIC50 value = 6.00 to 7.00

// Nc1ncnc2ccc(-c3ccc(CNc4ncc(S(N)(=O)=O)cc4C(=O)NCc4ccc(F)c(F)c4)s3)cc12 : pIC50 value = > 7.00

// C[C@H](NC(=O)c1cccnc1NCc1ccc(-c2c[nH]c3ncnc(N)c23)s1)c1ccc(F)cc1 : pIC50 value = 6.00 to 7.00

// CC(C)c1cnc(NCc2ccc(-c3ccc4ncnc(N)c4c3)s2)c(C(=O)NCc2ccc(F)c(F)c2)n1 : pIC50 value = 6.00 to 7.00

// Nc1ncnc2ccc(-c3ccc(CNc4ncc(F)cc4C(=O)NCc4ccc(F)c(F)c4)s3)cc12 : pIC50 value = > 7.00

// Nc1ncnc2ccc(-c3ccc(CNc4nccnc4C(=O)NCc4cc(F)cc(F)c4)s3)cc12 [Example 3.76, (TFA salt)] : pIC50 value = > 7.00

// Nc1ncnc2ccc(-c3ccc(CNc4ncccc4C(=O)Nc4cccc5cccnc45)s3)cc12 [Example 3.32, (TFA salt)] : pIC50 value = < 5.30

// C[C@H](NC(=O)c1cccnc1NCCOc1ccc2c(c1)NC(=O)/C2=C\c1cnc[nH]1)c1ccc(F)c(F)c1 : pIC50 value = > 7.00
